Cited source: ChEMBL document CHEMBL4028901

- Test system: Vero
- assayProcedure: Cytotoxicity against African green monkey Vero cells assessed as reduction in cell viability by MTT assay
- Type: cell-based
- testContext: Chlorocebus sabaeus
quantityMeasured: log10 of IC50 (log10 of the value in µM)
Transform log10 | Measure IC50 | Unit µM

Known results for molecules:
For this molecule ( `CN(Cc1ccc(F)cc1)c1nc(C(=O)Nc2ccccc2)cs1` ), measured log10 of IC50 is 2.45

For this molecule ( `COc1ccc(NC(=O)c2cc(N(C)Cc3ccc(F)cc3)ncn2)cc1` ), measured log10 of IC50 is 1.78

For this molecule ( `CN(Cc1ccccc1)c1cc(C(=O)Nc2ccccc2)ncn1` ), measured log10 of IC50 is 2.50

For every listed record, write down its log10 of IC50.
1. Cc1c(C(=O)Nc2ccc(F)cc2)ncnc1N(C)Cc1ccc(F)cc1
2. CN(Cc1ccc(C(F)(F)F)nc1)c1cc(C(=O)Nc2ccccc2)ncn1
3. COc1ccc(NC(=O)c2cc(N(C)Cc3cccc(F)c3)ncn2)cc1
4. CN(Cc1ccc(C(F)(F)F)nc1)c1cc(C(=O)Nc2nncs2)ncn1
5. CN(Cc1ccc(F)cc1)c1cc(C(Nc2ccc(F)cc2)C(F)(F)F)ncn1 (stereo unspecified)

**A:**
2.43
2.41
2.43
1.45
1.62

For every listed record, write down its log10 of IC50.
1. CCN(Cc1ccc(Cl)cc1)c1cc(C(=O)Nc2ccccc2)ncn1
2. CN(Cc1ccc(F)cc1)c1ccnc(C(=O)Nc2ccccc2)c1

**A:**
1: 2.43; 2: 2.47

For this molecule ( `COc1ccc(NC(=O)c2cc(N(C)Cc3ccccc3)ncn2)cc1` ), measured log10 of IC50 is 2.46

====

I'd appreciate it if you could supply Stability values for the items below.
- Tested on: Liver
- assayProcedure: Metabolic stability in rat liver microsomes assessed as compound remaining at 0.1 uM after 30 mins by LC-MS/MS analysis
- Format: ADME, microsome
- testContext: 0.5 h
Numbers only, in %.

For this molecule ( `CC(C)Oc1ccc(NC(=O)c2cc(N(C)Cc3ccc(F)cc3)ncn2)cc1` ), measured Stability is 43

For this molecule ( `CN(Cc1ccc(F)cc1)c1cc(C(=O)Nc2nncs2)ncn1` ), measured Stability is 65

For this molecule ( `CN(Cc1ccc(C(F)(F)F)cc1)c1cc(C(=O)Nc2ccccc2)ncn1` ), measured Stability is 87

For every listed record, write down its Stability.
1. CN1CCN(c2ccc(NC(=O)c3cc(N(C)Cc4ccc(C(F)(F)F)cc4)ncn3)cc2)CC1
2. CN(Cc1ccc(C(F)(F)F)nc1)c1cc(C(=O)Nc2nncs2)ncn1
3. CN(Cc1ccc(C(F)(F)F)nc1)c1cc(C(=O)Nc2ccccc2)ncn1

**A:**
1: 37; 2: 88; 3: 72

====

- System: Mus musculus
- assayProcedure: Cmax in C57/BL6 mouse at 20 mg/kg, po measured up to 24 hrs post dose by LC-MS/MS analysis
- Assay type: ADME, organism-based
- Parameters: dose 20 mg/kg, route oral
- testContext: in vivo
The label is y for Cmax below 3000 nM and n for Cmax equal to or exceeding 3000 nM.

Sample answers from the record:
**Q:** Would you kindly verify if Cmax of `CN(Cc1ccc(C(F)(F)F)nc1)c1cc(C(=O)Nc2ccccc2)ncn1` is strictly less than 3000 nM?
**A:** n

**Q:** Would you kindly verify if Cmax of `CN1CCN(c2ccc(NC(=O)c3cc(N(C)Cc4ccc(C(F)(F)F)cc4)ncn3)cc2)CC1` is strictly less than 3000 nM?
**A:** y

**Q:** Would you kindly verify if Cmax of `CN(Cc1ccc(C(F)(F)F)cc1)c1cc(C(=O)Nc2ccccc2)ncn1` is strictly less than 3000 nM?
**A:** y

**Q:** Would you kindly verify if Cmax of `CN(Cc1ccc(C(F)(F)F)nc1)c1cc(C(=O)Nc2nncs2)ncn1` is strictly less than 3000 nM?
**A:** n

// next entry
**Q:** Would you kindly verify if Cmax of `CN(Cc1ccc(F)cc1)c1cc(C(=O)Nc2nncs2)ncn1` is strictly less than 3000 nM?
**A:** y

====

I'd appreciate it if you could supply MIC99 values for the items below.
- System: Mycobacterium tuberculosis
- assayProcedure: Antibacterial activity against Mycobacterium tuberculosis H37RvMA grown in 7H9/ADC medium measured 7 to 14 days post inoculation by broth microdilution method
- Type: functional

Known results for molecules:
MIC99 for Mycobacterium tuberculosis with input `CN(Cc1ccc(F)cc1)c1cncc(C(=O)Nc2ccc(F)cc2)n1` equals > 50 µM

MIC99 for Mycobacterium tuberculosis with input `CN(Cc1ccccc1Cl)c1cc(C(=O)Nc2ccccc2)ncn1` equals > 160 µM

MIC99 for Mycobacterium tuberculosis with input `CN(Cc1ccc(F)cc1)c1cc(-c2nnc(-c3ccccc3)[nH]2)ncn1` equals > 50 µM

MIC99 for Mycobacterium tuberculosis with input `CN1CCN(c2ccc(NC(=O)c3cc(N(C)Cc4ccc(F)cc4)ncn3)cn2)CC1` equals > 50 µM

MIC99 for Mycobacterium tuberculosis with input `CN(Cc1ccccn1)c1cc(C(=O)Nc2ccccc2)ncn1` equals > 160 µM

For every listed record, write down its MIC99.
1. COc1ccc(NC(=O)c2cc(N(C)Cc3ccc(Cl)cc3)nc(N)n2)cc1
2. CC(C)NC(=O)c1cc(N(C)Cc2ccc(C(F)(F)F)cc2)ncn1
3. COc1ccc(NC(=O)c2ccnc(N(C)Cc3ccc(F)cc3)n2)cc1
4. CCN(Cc1ccc(Cl)cc1)c1cc(C(=O)Nc2ccccc2)ncn1
5. O=C(Nc1ccccc1)c1cc(NCc2ccccc2)ncn1
6. CN(Cc1ccccc1)c1cc(C(=O)N(C)c2ccccc2)ncn1

**A:**
1. > 50 µM
2. > 50 µM
3. > 50 µM
4. > 50 µM
5. > 160 µM
6. > 160 µM

For every listed record, write down its MIC99.
1. Cc1c(C(=O)Nc2ccc(F)cc2)ncnc1N(C)Cc1ccc(F)cc1
2. Cc1nc(C(=O)Nc2ccccc2)cc(N(C)Cc2ccc(Cl)cc2)n1

**A:**
1. > 50 µM
2. > 160 µM

====

- Tested on: Mus musculus
- assayProcedure: Apparent elimination half life in C57/BL6 mouse at 5 mg/kg, iv measured up to 24 hrs post dose by LC-MS/MS analysis
- Type: ADME, organism-based
- testContext: in vivo
quantityMeasured: betat1/2(app) (h)
Answers are plain numbers, in h.

Known results for compounds:
For this compound ( `CN(Cc1ccc(C(F)(F)F)cc1)c1cc(C(=O)Nc2ccccc2)ncn1` ), measured betat1/2(app) is 4.6

For this compound ( `CN(Cc1ccc(C(F)(F)F)nc1)c1cc(C(=O)Nc2ccccc2)ncn1` ), measured betat1/2(app) is 0.7

Here is the next item to consider.
For this compound ( `CN1CCN(c2ccc(NC(=O)c3cc(N(C)Cc4ccc(C(F)(F)F)cc4)ncn3)cc2)CC1` ), measured betat1/2(app) is 10.3

====

- System: Mycobacterium tuberculosis
- assayProcedure: Antibacterial activity against Mycobacterium tuberculosis H37RvMA grown in 7H9/ADC medium measured 7 to 14 days post inoculation by broth microdilution method
- Assay type: functional
quantityMeasured: MIC99

MIC99 for Mycobacterium tuberculosis with input `CN(c1ccccc1)c1cc(C(=O)Nc2ccccc2)ncn1` equals > 160 µM

MIC99 for Mycobacterium tuberculosis with input `CN(Cc1ccc(C#N)cc1)c1cc(C(=O)Nc2ccccc2)ncn1` equals > 50 µM

MIC99 for Mycobacterium tuberculosis with input `O=C(Nc1ccccc1)c1ccc(=O)n(Cc2ccc(F)cc2)c1` equals > 50 µM

MIC99 for Mycobacterium tuberculosis with input `O=C(Nc1ccccc1)c1cc(OCc2ccccc2)ncn1` equals > 160 µM

MIC99 for Mycobacterium tuberculosis with input `CN(Cc1ccc(F)cc1)c1cc(C(=O)Nc2ccon2)ncn1` equals > 50 µM

MIC99 for Mycobacterium tuberculosis with input `CN(CC1CCCCC1)c1cc(C(=O)Nc2ccccc2)ncn1` equals > 50 µM

Here is the next item to consider.
MIC99 for Mycobacterium tuberculosis with input `O=C(Nc1ccccc1)c1cc(N2CCc3ccccc3C2)ncn1` equals > 160 µM
